target: T1, human ApoC3 (huApoC3), native protein purified from human serum (human, UniProt P02656 21-99); assay: SPR Biacore, huApoC3 on chip, scFv-Fc as analyte
T1 construct: Athens Research and Technology; randomly biotinylated in some assays; also called Apolipoprotein C3
T1 sequence (P02656 21-99): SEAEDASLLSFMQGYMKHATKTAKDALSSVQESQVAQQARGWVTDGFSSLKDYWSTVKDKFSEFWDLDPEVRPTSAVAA
recorded metric: kon (M⁻¹ s⁻¹)
Answers are plain numbers, in M⁻¹ s⁻¹.

IN: Would you kindly share the measured kon for 8F4 scFv-Fc (Fc fusion, scFv-Fc format) VH: QLQLVESGGGLVQPGGSLRLSCAASGFAFSSYSMYWVRQAPGKGLERVAAIKTDGGSTNYADSVKGRFTVSRDNAKNTLYLQMNSLKSEDTAVYYCVIQGYGTWGQGTQVTVSS VL: DLVLTQIPGSLSVVPGESASISCKASQSLVHSDGKTYLYWLLQKPGQSPQRLIYQVSNRGSGVPDRFTGSGSGTDFTLKISGVEAEDAGVYYCAQATYYGHSFGSGTRLEIK ?
OUT: 163000
